test system: Zymoseptoria tritici; assay: Test C: wheat leaf blotch control on wheat seedlings; format: in vivo; conditions: 250 ppm; wheat seedlings; 100 = 100% disease control, 0 = no control
Recorded Endpoint: Test C disease control rating (%)

* COc1ccnc(C(=O)NC(C)C(=O)OC(C)c2cccc(C3CC3)c2)c1O (mixture of isomers) | 73
* COc1ccnc(C(=O)NC(C)C(=O)OC(C)c2cccc3ccccc23)c1O (stereo not shown) [Compound 113] | 42
* COc1ccnc(C(=O)NC(C)C(=O)OC(C(C)C)C2CCCCC2)c1O (mixture of isomers) | 79
* COc1ccnc(C(=O)NC(C)C(=O)OC(C)c2ccc(Br)s2)c1OC(C)=O (mixture of isomers) | 36
* COc1ccnc(C(=O)N[C@@H](C)C(=O)OC(C)c2ccccc2Oc2ccccc2)c1O (single isomer, unassigned) [Compound 106] | 90
* COc1ccnc(C(=O)NC(C(=O)OC(C)c2ccc(C3CCCCC3)cc2)C(C)C)c1O (mixture of isomers) | 97
* CCC(OC(=O)[C@H](C)NC(=O)c1nccc(OC)c1OCOC(=O)C(C)C)c1ccc(C2CCCCC2)cc1 (single isomer, unassigned) [Compound 133] | 93

###

Listing of entries alongside the reported pest or weed control at 250 ppm.
test system: Phytophthora infestans; assay: whole plant or invertebrate; format: in vivo; conditions: Phytophthora infestans, in Solanum lycopersicum, read-out: Test F disease control rating, 250 ppm; tomato seedlings; 100 = 100% disease control, 0 = no control
Recorded Endpoint: pest or weed control at 250 ppm (%)

• COc1ccnc(C(=O)N[C@@H](C)C(=O)OC(C)C2CCCCC2)c1O (mixture of isomers) = 0
• COc1ccnc(C(=O)N[C@@H](C)C(=O)O[C@@H](C)c2ccc(C3CCCCC3)cc2)c1OC(C)=O = 0
• COc1ccnc(C(=O)N[C@@H](C)C(=O)OC(C)C2CCCCC2)c1OC(C)=O (mixture of isomers) = 33
• CCC(OC(=O)[C@H](C)NC(=O)c1nccc(OC)c1OC(C)=O)C1CCCCC1 (mixture of isomers) = 0
• COc1ccnc(C(=O)NC(C)C(=O)OC(C)c2cccc3ccccc23)c1O (stereo not drawn) = 0
• COc1ccnc(C(=O)N[C@@H](C)C(=O)O[C@@H](C)C2CCCCC2)c1OC(C)=O = 47
• COc1ccnc(C(=O)N[C@@H](C)C(=O)OC(C)c2ccc(C3CCCCC3)cc2)c1O (mixture of isomers) = 0
• CC(NC(=O)c1cccc(N)c1O)C(=O)OC(C)c1ccccc1Cc1ccccc1 (racemic) = 76
• COc1ccnc(C(=O)NC(C)C(=O)OC(C)c2ccc3ccccc3c2)c1O (racemic) = 0

###

system: Plasmopara viticola; experiment: Test D: grape downy mildew control on grape seedlings; format: in vivo; details: 250 ppm, 100 = 100% disease control, 0 = no control
Recorded Endpoint: Test D disease control rating (%)

* COc1ccnc(C(=O)N[C@@H](C)C(=O)OC(C)c2ccccc2Cc2ccc(F)cc2)c1OC(C)=O (single isomer, unassigned) [Compound 22] | 61
* COc1ccnc(C(=O)NC(C)C(=O)OC(C)c2ccccc2C(F)(F)F)c1OC(C)=O (mixture of isomers) | 35
* COc1ccnc(C(=O)NC(C)C(=O)OC(C)c2ccc(C(F)(F)F)cc2)c1O (mixture of isomers) | 72
* COc1ccnc(C(=O)N[C@@H](C)C(=O)OC(C2CCCCC2)C2CCCCC2)c1O | 43
* COc1ccnc(C(=O)N[C@@H](C)C(=O)OC(C)c2ccc(F)cc2Cc2ccc(F)cc2)c1OC(C)=O (single isomer, unassigned) | 27
* COc1ccc(COc2c(OC)ccnc2C(=O)NC(C)C(=O)OC(C)c2ccc(C3CCCCC3)cc2)cc1 (mixture of isomers) | 5
* COc1ccnc(C(=O)NC(C)C(=O)OC(C#N)c2ccccc2)c1O (mixture of isomers) | 11
* COc1ccnc(C(=O)NC(C)C(=O)OC(C)c2ccccc2Oc2ccc(F)cc2)c1OC(C)=O (mixture of isomers) | 15
* COc1ccnc(C(=O)N[C@@H](C)C(=O)OC(C)c2ccc(C3CCCCC3)cc2)c1OCOC(=O)C(C)C (single isomer, unassigned) [Compound 145] | 22
* C=CCOc1c(OC)ccnc1C(=O)NC(C)C(=O)OC(C)c1ccc(C2CCCCC2)cc1 (mixture of isomers) | 70
* COc1cccc(C(=O)NC(C)C(=O)OC(C)C2CCCCC2)c1O (mixture of isomers) | 96
* COc1ccnc(C(=O)NC(C)C(=O)OC(C)c2ccc(F)cc2Oc2ccc(F)cc2)c1O (mixture of isomers) | 82
* CCC(OC(=O)[C@H](C)NC(=O)c1nccc(OC)c1O)C1CCCCC1 (single isomer, unassigned) [Compound 182] | 15
* COc1ccnc(C(=O)NC(C)C(=O)OC(C)c2cccc(-n3ccc(C(F)(F)F)n3)c2)c1O (mixture of isomers) | 40
* COc1ccnc(C(=O)NC(C)C(=O)OC(C)c2ccc(C#C[Si](C)(C)C)cc2)c1OC(C)=O (mixture of isomers) | 28
* COc1ccnc(C(=O)NC(C)C(=O)OC(C)c2ccc(C#N)cc2)c1O (mixture of isomers) | 58
* CCOC(=O)c1cnn(-c2ccc(C(C)OC(=O)C(C)NC(=O)c3nccc(OC)c3OC(C)=O)cc2)c1 (mixture of isomers) | 20
* COc1ccnc(C(=O)NC(C)C(=O)OC(C)c2cccc(C3CC3)c2)c1O (mixture of isomers) | 94
* CCC(OC(=O)[C@H](C)NC(=O)c1nccc(OC)c1OC(C)=O)c1ccc(C2CCCCC2)cc1 (single isomer, unassigned) [Compound 131] | 6
* CC(NC(=O)c1cccc(NC=O)c1O)C(=O)OC(C)c1ccc(C2CCCCC2)cc1 (mixture of isomers) | 100
* COc1ccnc(C(=O)N[C@@H](C)C(=O)OC(C)c2ccccc2Oc2ccc(F)cc2)c1O (single isomer, unassigned) | 66
* COc1ccnc(C(=O)N[C@@H](C)C(=O)OC(C)c2cccc(OC3CCC(C)(C)CC3)c2)c1OC(C)=O (some centres unmarked) | 11
* COc1ccnc(C(=O)N[C@@H](C)C(=O)OC(C)c2ccc(C(C)C)cc2)c1OC(C)=O (some centres unmarked) | 71
* COc1ccnc(C(=O)N[C@@H](C)C(=O)OC(C2CCCCC2)C2CCCCC2)c1OC(C)=O | 22
* COc1ccnc(C(=O)NC(C)C(=O)OC(C)c2ccc(F)cc2Oc2ccccc2)c1O (mixture of isomers) | 53
* COc1ccnc(C(=O)NC(C)C(=O)OC(C)c2ccc(-n3ccc(C(F)(F)F)n3)cc2-n2ccc(C(F)(F)F)n2)c1O (mixture of isomers) | 16

###

system: Plasmopara viticola; assay: Test D: grape downy mildew control on grape seedlings; assay type: in vivo; settings: 250 ppm, 100 = 100% disease control, 0 = no control
Recorded Endpoint: Test D disease control rating (%)

- COc1cccc(C(=O)NC(C)C(=O)OC(C)c2ccccc2Cc2ccccc2)c1O (centres unmarked) [Compound 6]: 28
- COc1ccnc(C(=O)NC(C)C(=O)OC(C)c2ccc(C(F)(F)F)cc2)c1OC(C)=O (mixture of isomers) [Compound 35]: 68
- CCC(OC(=O)[C@H](C)NC(=O)c1nccc(OC)c1OC(C)=O)C1CCCCC1 (single isomer, unassigned) [Compound 168]: 31
- CCC(OC(=O)[C@H](C)NC(=O)c1nccc(OC)c1OCOC(C)=O)c1ccc(C2CCCCC2)cc1 (single isomer, unassigned) [Compound 134]: 33
- CCOC(=O)c1ccn(-c2ccc(C(C)OC(=O)C(C)NC(=O)c3nccc(OC)c3O)cc2)n1 (mixture of isomers) [Compound 49]: 17
- COc1ccnc(C(=O)NC(C)C(=O)OC(C)C2CCC(C)(C)CC2)c1OC(C)=O (mixture of isomers) [Compound 165]: 10
- COc1ccnc(C(=O)NC(C)C(=O)OC(C)c2ccc(F)cc2Cc2ccccc2)c1O (mixture of isomers) [Compound 12]: 83
- COc1ccnc(C(=O)N[C@@H](C)C(=O)OC(C)c2ccc(C3CCCCC3)cc2)c1OCOC(=O)C(C)C (single isomer, unassigned) [Compound 144]: 35
- COc1ccnc(C(=O)N[C@@H](C)C(=O)OC(C)c2cccc3ccccc23)c1OC(C)=O (single isomer, unassigned) [Compound 116]: 55
- COc1ccnc(C(=O)NC(C)C(=O)OC(C)c2cc3ccccc3o2)c1O (mixture of isomers) [Compound 125]: 67
- COc1ccnc(C(=O)N[C@@H](C)C(=O)OC(C)c2ccc(C(C)C)cc2)c1O (some centres unmarked) [Compound 118]: 85
- COc1ccnc(C(=O)NC(C)C(=O)OC(C)C23CC4CC(CC(C4)C2)C3)c1OC(C)=O (mixture of isomers) [Compound 43]: 71
- COc1ccnc(C(=O)N[C@@H](C)C(=O)OC(C)c2ccccc2-c2ccccc2)c1O (single isomer, unassigned) [Compound 1]: 36
- CCC(OC(=O)[C@H](C)NC(=O)c1nccc(OC)c1O)C1CCCCC1 (single isomer, unassigned) [Compound 167]: 41
- COc1ccnc(C(=O)NC(C)C(=O)OC(C)c2ccc(Br)s2)c1OC(C)=O (mixture of isomers) [Compound 67]: 53
- COc1ccnc(C(=O)NC(C)C(=O)OC(C)c2ccc(F)cc2)c1OC(C)=O (mixture of isomers) [Compound 15]: 39
- COc1ccnc(C(=O)N[C@@H](C)C(=O)OC(C)c2ccccc2-c2ccccc2)c1O (single isomer, unassigned) [Compound 2]: 63
- COc1ccnc(C(=O)N[C@@H](C)C(=O)OC(C)c2ccccc2Cc2ccc(F)cc2)c1OC(C)=O (single isomer, unassigned) [Compound 11]: 30
- COc1ccnc(C(=O)NC(C)C(=O)OC(C)c2ccccc2Cc2ccc(F)cc2)c1O (mixture of isomers) [Compound 13]: 50
- COc1ccnc(C(=O)NC(C)C(=O)OC(C)C2CC(C)(C)CC(C)(C)C2)c1OC(C)=O (mixture of isomers) [Compound 171]: 49
- COc1ccnc(C(=O)NC(C)C(=O)OC(C)c2ccccc2-n2ccc(C(F)(F)F)n2)c1OC(C)=O (mixture of isomers) [Compound 25]: 41
- COc1ccnc(C(=O)N[C@@H](C)C(=O)OC(c2ccc(C3CCCCC3)cc2)C(F)(F)F)c1OC(C)=O (some centres unmarked) [Compound 119]: 27
- COc1ccnc(C(=O)NC(C)C(=O)OC(C)c2ccc(F)cc2Oc2ccccc2)c1OC(C)=O (mixture of isomers) [Compound 85]: 62
- CC(NC(=O)c1cccc(NC=O)c1O)C(=O)OC(C)c1cccc(OC2CCC(C)(C)CC2)c1 (mixture of isomers) [Compound 160]: 98
- COc1ccnc(C(=O)NC(C)C(=O)OC(C)c2ccc3ccccc3c2)c1OC(C)=O (mixture of isomers) [Compound 75]: 61
- COc1ccnc(C(=O)NC(C)C(=O)OC(C)C2CCCc3ccccc32)c1OC(C)=O (mixture of isomers) [Compound 185]: 61
